# TEST TARGET: T1, PUF4 RNA-binding domain (Saccharomyces cerevisiae, UniProt P25339 537-888)
# T1 sequence: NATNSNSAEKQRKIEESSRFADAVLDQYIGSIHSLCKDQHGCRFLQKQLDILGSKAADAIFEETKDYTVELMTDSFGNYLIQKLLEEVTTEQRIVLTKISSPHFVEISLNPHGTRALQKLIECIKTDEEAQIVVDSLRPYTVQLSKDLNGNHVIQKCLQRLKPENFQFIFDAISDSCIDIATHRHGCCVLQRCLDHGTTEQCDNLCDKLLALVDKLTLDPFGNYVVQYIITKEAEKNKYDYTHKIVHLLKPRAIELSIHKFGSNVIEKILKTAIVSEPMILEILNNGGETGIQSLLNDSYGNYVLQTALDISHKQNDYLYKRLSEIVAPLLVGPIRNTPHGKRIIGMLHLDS
# PROTOCOL TEXT: Mg; RNA-MaP; 20 mM Na-HEPES pH 7.4, 30 mM KOAc, 0.75 mM MgCl2, 0.1% Tween-20, 5% glycerol, 0.1 mg/mL BSA, 2 mM DTT; 25 C; 0.0125-409.6 nM protein
# EXPERIMENTAL PARAMETERS: tags: N-His6-TEV cleaved; C-SNAP kept, Cy3B-labelled; label: tethered on chip by stalled RNA polymerase
pKd: −log10 of the molar value.
READOUT TYPE: pKd

Consider the binder UCUCUUUGUAUGGCGUCUCUU (ssRNA) [Ic_S1_P4E.1_K4.1_C4.1_H4.1_A4.1_[A6G]_[T7G]_F4.1_[T8C]_[A9G]_T4.1] and give its measured pKd. < 5.64

Request: ACAAACCUACACUAUAAAACAAAC (ssRNA) [Id_ii_S3_P3E.4_K3.3_C3.2_H3.3_A3.1_F3.1_T3.2_[T9A]] < 5.64

Request: ACAAACUUUAUUAUUUACAAAC (ssRNA) [Ib_S3_P5E.1_K5.1_C5.1_H5.1_[G2T]_A5.1_F5.1_[A10T]_T5.1] < 5.64
